Parameter: IFT 500 mg/L. Scope: all listed entries.
Test: Interfacial tension (IFT) of surfactants in seawater
Assay type: physicochemical
Conditions: surfactant 500 mg/L
Answer in mN/m, number only, no unit symbol.

CCCCCCCC/C=C\CCCCCCCCCCCC(=O)NCCC[N+](C)(C)CC(O)COC(=O)C(F)(F)F.[Cl-] (stereo not shown) :: 0.31

// moving on: another record for IFT 500 mg/L
// query IFT 500 mg/L value for entry CCCCCCCC/C=C\CCCCCCCCCCCC(=O)NCCC[N+](C)(C)CC(O)COC(C)=O.[Cl-] (stereo not shown)
1.11

###

Test: Compatibility of surfactants in seawater
Format: physicochemical
Set-up: key: A = clear; B = phase separation
Conditions: in seawater (total salinity 57,670 ppm), 95° C.
experimental-endpoint: Compatibility 95° C.

CCCCCCCC/C=C\CCCCCCCCCCCC(=O)NCCC[N+](C)(C)CC(O)CO.[Cl-] (stereo not shown) :: A
CCCCCCCC/C=C\CCCCCCCCCCCC(=O)NCCC[N+](C)(C)CC(O)COC(=O)CC.[Cl-] (stereo not shown) :: B
CCCCCCCC/C=C\CCCCCCCCCCCC(=O)NCCC[N+](C)(C)CC(O)COC(=O)C(F)(F)F.[Cl-] (stereo not shown) :: B
CCCCCCCC/C=C\CCCCCCCCCCCC(=O)NCCC[N+](C)(C)CC(O)COC(C)=O.[Cl-] (stereo not shown) :: B
